experiment: folding enthalpy; higher = less favourable; fluorescence melt of hairpins on a sequencing array, two-state fit; details: sodium 0.088 M
Classify as follows. Reported folding enthalpy greater than or equal to -30 kcal/mol: Satisfied. Reported folding enthalpy below: Not satisfied.

seq: GTATCCGGAAACGGGTAC (((.(((....))).)))
classification: Not satisfied
//
seq: GCGACCGTCGC ((((...))))
classification: Satisfied
//
seq: GTGTTCGAAAGAACGCAC ((((((....)))..)))
classification: Satisfied
//
seq: GATCGCTGCGGCGATC ((((((....))))))
classification: Not satisfied
//
seq: GGTCTTGGAAACAAGATC (.(((((....))))).)
classification: Satisfied
//
seq: AGAATGAAAATTCT (((((....)))))
classification: Satisfied
//
seq: GATCCTGAATAGGATC ((((((....))))))
classification: Not satisfied
//
seq: GCGAAGCGAAAGCTAGGC ((..(((....)))..))
classification: Satisfied
//
seq: GATCTTTTGAAGATC ((((((...))))))
classification: Satisfied
//
seq: GTCCCTCCGAAAGGAGAC (((..(((....))))))
classification: Satisfied
//
seq: GCTATATCGAAAGATAGC (((..(((....))))))
classification: Satisfied
//
seq: GTTGACGGAAACATCAAC (((((.(....).)))))
classification: Not satisfied
//
seq: GACAGCGAAAGCTTTGTC ((((((....)))..)))
classification: Satisfied
//
seq: GTCACTCCGAAAGGAGAC (((..(((....))))))
classification: Satisfied
//
seq: GCGCAGGGAAACCCGCAC (.((.((....)).)).)
classification: Satisfied
//
seq: GAGAGCCGAAAGGCCTC (((.(((....))))))
classification: Satisfied
//
seq: GGGCTCGAAAGAGTACCC ((((((....)))..)))
classification: Satisfied
//
seq: GATCGAGCGATCGATC ((((((....))))))
classification: Not satisfied
//
seq: GCGTCTCCGAAAGGACGC (((..(((....))))))
classification: Not satisfied
//
seq: GATCACGCGAGTGATC ((((((....))))))
classification: Not satisfied
//
seq: GTTTGTCCGAAAGGAAAC (((..(((....))))))
classification: Satisfied
//
seq: GGTAACCGAAAGGTACC (((.(((....))))))
classification: Satisfied
//
seq: GCTATGCGAAAGCAAGGC ((..(((....)))..))
classification: Satisfied
//
seq: GTACCGGGAAACCGATAC (((.(((....))).)))
classification: Satisfied
//
seq: GGGCCAGGAAACTGGTCC ((.((((....)))).))
classification: Not satisfied
//
seq: GGCGCACCGAAAGGTGCC (((..(((....))))))
classification: Satisfied
//
seq: GATCTTCTTTAAGATC ((((((....))))))
classification: Not satisfied
//
seq: GATCCACCCTTGGATC ((((((....))))))
classification: Not satisfied
//
seq: GACAACCGAAAGGTGTC (((.(((....))))))
classification: Satisfied
//
seq: GATCAAAATATTGATC ((((((....))))))
classification: Satisfied
//
seq: GATCAAGGCGTTGATC ((((((....))))))
classification: Not satisfied
//
seq: GGTTGCGAAAGCATAACC ((((((....)))..)))
classification: Satisfied
//
seq: GTTGTCGAAAGACAAC ((((((....))))))
classification: Satisfied
//
seq: GTGTACGGAAACGTGTAC ((..(((....)))..))
classification: Satisfied
//
seq: GCGATCCGAAAGGACGC (((.(((....))))))
classification: Not satisfied
//
seq: GGAAGTGGAAACACTCCC ((.((((....)))).))
classification: Satisfied
//
seq: GCCGGGCGAAAGCCCAGC ((.((((....)))).))
classification: Satisfied
//
seq: GTCCGCGAAAGCGACGAC ((((((....)))..)))
classification: Satisfied
//
seq: GATCGACCGCTCGATC ((((((....))))))
classification: Not satisfied
//
seq: GTGAAGGGAAACCTTCAC (((((((....)))))))
classification: Not satisfied
//
seq: GTGCTGGGAAACCAGTAC ((.((((....)))).))
classification: Not satisfied
//
seq: GCGCCAGCGAAAGCTCGC (((..(((....))))))
classification: Satisfied
//
seq: GCATTGCGAAAGCAGAGC ((..(((....)))..))
classification: Satisfied
//
seq: GGGAACGAAAGTTCCCCC ((((((....)))..)))
classification: Satisfied
//
seq: GGCGGTGGAAACACCGTC (.(((((....))))).)
classification: Satisfied
